- measurementTarget: HPK1 (Homo sapiens, UniProt Q92918)
- Construct: A HiBiT tag was introduced by CRISPR on the N terminus of HPK1 in Jurkat cells; host or cells: Jurkat cells (ATCC TIB-152), monoclonal line with CRISPR knock-in of HiBiT at the endogenous HPK1 locus
- Sequence (Q92918 whole entry): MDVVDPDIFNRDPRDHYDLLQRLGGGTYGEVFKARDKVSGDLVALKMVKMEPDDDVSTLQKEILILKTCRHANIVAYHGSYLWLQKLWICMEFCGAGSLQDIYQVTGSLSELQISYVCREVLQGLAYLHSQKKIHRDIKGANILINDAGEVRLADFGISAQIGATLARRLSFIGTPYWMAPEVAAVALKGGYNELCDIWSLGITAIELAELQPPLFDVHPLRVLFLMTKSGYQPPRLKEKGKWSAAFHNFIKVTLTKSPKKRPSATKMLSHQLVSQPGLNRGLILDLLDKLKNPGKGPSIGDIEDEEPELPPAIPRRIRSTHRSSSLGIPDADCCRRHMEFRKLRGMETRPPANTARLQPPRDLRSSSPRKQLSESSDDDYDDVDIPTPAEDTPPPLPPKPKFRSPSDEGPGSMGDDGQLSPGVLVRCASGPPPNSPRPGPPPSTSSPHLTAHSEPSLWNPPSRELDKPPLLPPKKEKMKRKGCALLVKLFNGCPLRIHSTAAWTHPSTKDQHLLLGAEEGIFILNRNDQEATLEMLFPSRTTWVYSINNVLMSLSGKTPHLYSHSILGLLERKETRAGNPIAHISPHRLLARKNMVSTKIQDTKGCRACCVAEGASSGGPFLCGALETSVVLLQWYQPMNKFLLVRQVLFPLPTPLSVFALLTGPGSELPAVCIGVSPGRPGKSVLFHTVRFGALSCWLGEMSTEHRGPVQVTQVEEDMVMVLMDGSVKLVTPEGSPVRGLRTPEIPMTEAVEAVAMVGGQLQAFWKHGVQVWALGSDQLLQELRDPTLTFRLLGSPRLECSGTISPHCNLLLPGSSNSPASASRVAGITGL
- experimentSummary: HPK1 Cellular HiBit Degradation Assay
- Format: cell-based
- studyConditions: Jurkat, HiBiT HPK1 Jurkat cells, 24 hrs; maximum degradation vs DMSO vehicle control; read-out: Dmax Category
metricName: Dmax

- molecule: "CC(C)n1cnc2cc(-c3ccc4c(c3)N([C@H]3C[C@@H](N5CCCCC5)C3)C(=O)C43CCN(C(=O)[C@@H]4CCN(C(=O)[C@H]5CC[C@H](Oc6ccc(C7CCC(=O)NC7=O)cn6)CC5)C4)CC3)nc(Nc3ccccc3F)c21 (mixture of isomers) [Example 17]"
  experimentalResult: "> 85%"
- molecule: "CC(C)n1cnc2cc(-c3ccc4c(c3)N([C@H]3C[C@@H](N5CCCCC5)C3)C(=O)C43CCN(C(=O)C4(C)CCN(C(=O)[C@H]5CC[C@H](Cn6cc7cc(C8CCC(=O)NC8=O)ccc7n6)CC5)CC4)CC3)nc(Nc3ccccc3F)c21 (mixture of isomers) [Example 190]"
  experimentalResult: "50 to 70%"
- molecule: "CC(C)n1cnc2cc(-c3ccc4c(c3)N([C@H]3C[C@@H](N5CCCCC5)C3)C(=O)C43CCN(C(=O)CN4CCC(OCC#Cc5cccc6c5n(C)c(=O)n6C5CCC(=O)NC5=O)CC4)CC3)nc(NC3CC3)c21 (mixture of isomers) [Example 229]"
  experimentalResult: "70 to 85%"
- molecule: "CC(C)Nc1nc(-c2ccc3c(c2)N([C@H]2C[C@@H](N4CCCCC4)C2)C(=O)C32CCN(C(=O)C3(C)CCN(C(=O)C4CCN(c5ccc(C6CCC(=O)NC6=O)cn5)CC4)CC3)CC2)cc2ncn(C(C)C)c12 (stereo partly shown) [Example 166]"
  experimentalResult: "> 85%"
